assay: Oral bioavailability in Sprague-Dawley rat at 10 mg/kg by LC-MS/MS analysis; type: ADME, organism-based; conditions: in vivo
reportedMetric: bioavailability (%)
Give just the number in %; leave the unit off.

Can you share its bioavailability? I mean this compound: "Cc1ccc(C(C)C)cc1NC(=O)Cn1c(Cc2c(Cl)cccc2Cl)nc2ccccc21"
3.7

###

test: Terminal half life in Sprague-Dawley rat at 10 mg/kg, po by LC-MS/MS analysis; assay type: ADME, organism-based; settings: in vivo, read-out: beta t1/2
reportedMetric: half-life (h)
Please state the figure in h; there is no need to write the unit.

Bench note: what half-life did "Cc1ccc(C(C)C)cc1NC(=O)Cn1c(Cc2c(Cl)cccc2Cl)nc2ccccc21" show?
1.49
